Listing of recorded Positive rate (%) by entry.
target: T1, human Claudin18.1 (human, UniProt P56856 1-261); test: FACS on HEK293T-Claudin18.1 (human) cells, antibody 50 µg/mL
T1 construct: whole, on cells; also called CLDN18.1; HEK293T-Claudin18.1 (human)
T1 sequence (P56856 whole entry): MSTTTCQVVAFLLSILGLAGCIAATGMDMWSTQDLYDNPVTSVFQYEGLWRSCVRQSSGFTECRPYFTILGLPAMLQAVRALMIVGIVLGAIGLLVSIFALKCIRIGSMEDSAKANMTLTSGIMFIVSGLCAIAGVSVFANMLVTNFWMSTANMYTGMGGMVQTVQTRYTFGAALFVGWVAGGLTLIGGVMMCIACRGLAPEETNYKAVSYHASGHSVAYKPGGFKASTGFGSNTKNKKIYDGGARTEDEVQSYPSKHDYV

binder	Positive rate (%)
1A6G10 (antibody, V domains shown, Murine monoclonal antibody purified from hybridoma supernatant; also called 1A6G11) VH: QVQLKESGGGLVKPGGSLKLSCAASGFTFSSYAMSWVRQTPEKRLEWVAAIHSNGGSTYNSDTMRDRFTISRDHAKNTLYLQMSSLRSEDTALYYCGRQSFGNALDYWGQGTSVTVSS VL: DIQMTQSPSSLTVTAGEKVTLTCKSSQSLLNSGNQKNYLTWYQQKPGQPPKLLIYWASTRESGVPDRFTGSGSGTFFTLTISSVQAEDLAVYFCQNDYVYPFTFGAGTQLELK	0.16
32F7A6 (antibody, V domains shown, Murine monoclonal antibody purified from hybridoma supernatant) VH: QIQLVQSGPELRKPGETVKISCKASGYTFTAYTMGWVKQAPGKGLEWMAWINTYSGVPTYAADFKGRFAFSLETSASTAYLLINNLKNEDTATYFCARGVRGNSMDYWGQGTSVTVSS VL: DIVETQSPSSLTVTVGERVTLSCKSSQSLLNSGNQRNYLTWSQQKPGQPPKLLIYWASTRESGVPNRFTGGGSGTYFTLTISSVQVEDLAVYYCQNTYSFPFTFGTGTKLEIK	0
23F2F2 (antibody, V domains shown, Murine monoclonal antibody purified from hybridoma supernatant) VH: QVQLKESGGGLVQPGGSMKLSCAASGFTFSDAWMNWVRQSPEKGLEWVAEIRNKADYHATHYVESVTGRFTISRDDSKSSVYLQMNRLRAEDTGIYYCTRNYGSRFDYWGQGTTLTVSS VL: DIVETQSPSSLTVTAGEKVTMSCKSSQSLLNSGNQRNYLTWYQQKPGHPPKLLIYWASTRESGVPDRFTGSGSGTDFTLTVTSVQAEDLAVYYCQNDYFYPLAFGTGTKLELK	2.16
